// data source = the METLIN SMRT retention time set (Domingo-Almenara et al. 2019)

assay: gradient 5% acetonitrile 3 min, to 50% in 2 min, to 85% in 15 min, held 3 min, 100 µL/min; conditions: column: Zorbax Extend-C18 2.1 x 50 mm; eluents: water / acetonitrile, 0.1% formic acid
Mark each entry True if its RP-LC retention time sits below 800 s, and False for all others.

{"columns": ["compound", "class_assignment"],
 "data": [
  ["COc1ccc(Nc2nc(C(=O)N3c4ccccc4CC3C)cs2)cc1OC (stereo not given)", "False"],
  ["Cc1cc(Cl)ccc1NC(=O)c1cc2c(=O)n(CC(C)C)ccc2n1C", "False"],
  ["CN(CC(=O)N1CCN(c2ccccc2F)CC1)S(=O)(=O)c1ccc2c(c1)CCCC(=O)N2", "True"],
  ["COc1ccc(NC(=O)C2CCc3nc(N4CCOCC4)ncc3C2)cc1C(F)(F)F (stereo not given)", "False"],
  ["Cc1ccc(N2CC(c3noc(-c4ccco4)n3)CC2=O)cc1 (stereo not given)", "False"],
  ["COc1ccc(-c2nc3n(c2C(=O)Nc2nc(-c4ccccc4)cs2)CCS3(=O)=O)cc1", "False"],
  ["O=C(Nc1cccc(C(F)(F)F)c1)c1cc2ncc(Br)cn2n1", "False"],
  ["CCOc1ccc(CNC(=O)c2cn3cc(Cl)ccc3n2)cc1", "False"],
  ["Cc1cc(-n2nnc(C(=O)O)c2-c2ccccn2)ccc1F", "True"],
  ["Cc1cc(=O)n(CC(=O)NCc2ccccc2Cl)c(N)n1", "True"],
  ["CC(C)(CO)NS(=O)(=O)c1cc(-c2nnc(-c3ccccc3)o2)ccc1F", "True"]
]}

###

assay: gradient 5% acetonitrile 3 min, to 50% in 2 min, to 85% in 15 min, held 3 min, 100 µL/min; conditions: column: Zorbax Extend-C18 2.1 x 50 mm; eluents: water / acetonitrile, 0.1% formic acid
Each record is given YES if its reported RP-LC retention time is strictly below 900 s. Records at or above 900 s are given NO.

{"columns": ["cpd_smiles", "class_assignment"],
 "data": [
  ["COc1cc(NC(=O)Cn2cccc2-c2nnc(-c3ccccc3)o2)cc(OC)c1", "NO"],
  ["COC(=O)c1c(-c2ccc(OC)cc2)csc1N", "YES"],
  ["CCCCNC(=O)CCCn1c(=O)c2cccn2c2ccccc21", "YES"],
  ["CN(C)S(=O)(=O)N1CCc2nc(NC(=O)c3cccs3)sc2C1", "YES"],
  ["CCCN1C(=O)COc2ccc(-c3noc(-c4ccn(CC)n4)n3)cc21", "NO"],
  ["COC(=O)c1c(-c2cccs2)csc1NC(=O)c1cc(OC)c(OC)c(OC)c1", "NO"],
  ["Cc1ccccc1-c1nc(-c2ccc3nncn3c2)no1", "YES"],
  ["CCn1cc(-c2nc(CC(=O)Nc3cccc(Cl)c3)cs2)c2cccnc21", "NO"],
  ["Cc1ccccc1-c1noc(N2CCC(C(=O)N3CCOCC3)CC2)n1", "YES"],
  ["Cc1ccc(Cn2nc3c(S(=O)(=O)N4CCCCC4)cccn3c2=O)c(C)c1", "NO"],
  ["Cc1csc(-c2cc(S(=O)(=O)Nc3cc(Cl)ccc3C)c(C)s2)n1", "NO"],
  ["COc1ccc(C(=O)N2CCN(c3ccc(-c4nc(C)cs4)cn3)CC2)cc1OC", "YES"]
]}
